Provenance of the data: paper PMC8049054

This section presents compounds with their documented IC50 values.
# measurement.target: leukotriene A4 hydrolase (LTA4H) (Homo sapiens, UniProt P09960)
# Sequence (P09960 whole entry): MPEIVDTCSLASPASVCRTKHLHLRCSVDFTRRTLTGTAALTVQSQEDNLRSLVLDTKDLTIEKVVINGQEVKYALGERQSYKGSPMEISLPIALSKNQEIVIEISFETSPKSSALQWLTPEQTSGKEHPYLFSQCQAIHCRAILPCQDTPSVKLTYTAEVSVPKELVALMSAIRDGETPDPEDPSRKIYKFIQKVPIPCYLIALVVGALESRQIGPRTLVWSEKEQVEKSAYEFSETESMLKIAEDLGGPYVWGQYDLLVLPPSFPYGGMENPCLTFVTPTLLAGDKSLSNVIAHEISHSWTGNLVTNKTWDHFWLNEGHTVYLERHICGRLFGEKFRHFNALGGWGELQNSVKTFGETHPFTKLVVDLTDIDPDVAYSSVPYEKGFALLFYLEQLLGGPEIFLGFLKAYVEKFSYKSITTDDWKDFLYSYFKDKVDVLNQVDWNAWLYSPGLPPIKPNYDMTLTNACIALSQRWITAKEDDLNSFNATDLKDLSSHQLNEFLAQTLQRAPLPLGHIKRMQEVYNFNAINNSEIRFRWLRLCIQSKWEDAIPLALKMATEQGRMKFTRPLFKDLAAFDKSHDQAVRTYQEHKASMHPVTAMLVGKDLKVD

{"compound": "Oc1ccc(-c2ccc(F)cc2F)cc1 [Compound 9]", "limit.sign": "=", "IC50, µM": 36.2}
{"compound": "CCN(Cc1ccccc1)c1ccccc1 [Compound 7]", "limit.sign": ">", "IC50, µM": 300}

###

# measurement.target: 5‐lipoxygenase (5‐LOX) (Homo sapiens)
# Construct: made in house; host or cells: E. coli BL21 (DE3)
# test.protocol: 5-LOX activity assay (HPLC detection of product formation)
# Format: biochemical
# experimental.setup: ligand efficiency calculated from IC50
This section presents compounds with their documented 5‐LOX LE values.

{"structure.smiles": "Cc1cc(=O)n(-c2ccc(C)c(C)c2)[nH]1", "5‐LOX LE (kcal/mol)": 0.42}
{"structure.smiles": "Fc1ccc(-c2c[nH]c3ccccc23)cc1", "5‐LOX LE (kcal/mol)": 0.36}
{"structure.smiles": "Oc1ccc(-c2ccc(F)cc2F)cc1", "5‐LOX LE (kcal/mol)": 0.38}
{"structure.smiles": "Oc1ccc2cc[nH]c2c1", "5‐LOX LE (kcal/mol)": 0.64}
{"structure.smiles": "Clc1ccc2c(c1)Nc1ccccc1CC2", "5‐LOX LE (kcal/mol)": 0.44}

###

# measurement.target: soluble epoxide hydrolase (sEH) (Homo sapiens)
# Sequence (P34913 1-555): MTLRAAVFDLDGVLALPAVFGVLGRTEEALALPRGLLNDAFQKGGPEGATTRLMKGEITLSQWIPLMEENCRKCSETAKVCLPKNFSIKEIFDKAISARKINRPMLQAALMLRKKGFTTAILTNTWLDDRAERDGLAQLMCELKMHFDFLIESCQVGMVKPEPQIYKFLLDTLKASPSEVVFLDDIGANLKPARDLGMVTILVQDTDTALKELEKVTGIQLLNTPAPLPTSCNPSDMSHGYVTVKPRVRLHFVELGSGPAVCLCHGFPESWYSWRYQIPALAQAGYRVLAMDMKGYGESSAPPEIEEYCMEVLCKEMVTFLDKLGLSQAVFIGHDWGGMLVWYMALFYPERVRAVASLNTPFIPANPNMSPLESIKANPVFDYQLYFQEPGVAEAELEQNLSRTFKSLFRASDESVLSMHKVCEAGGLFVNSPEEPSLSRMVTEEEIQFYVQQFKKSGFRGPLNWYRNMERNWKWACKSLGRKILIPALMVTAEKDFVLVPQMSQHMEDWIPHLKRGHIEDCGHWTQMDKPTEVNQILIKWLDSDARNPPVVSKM

{"structure.smiles": "Clc1ccc2c(c1)Nc1ccccc1CC2", "measurement.target": "soluble epoxide hydrolase (sEH) (Homo sapiens)", "IC50": "141 µM"}
{"structure.smiles": "CCCCOc1cc(C(=O)OC)ccc1N", "measurement.target": "soluble epoxide hydrolase (sEH) (Homo sapiens)", "IC50": "> 300 µM"}
{"structure.smiles": "Cc1ccccc1C(=O)Nc1ccccc1", "measurement.target": "soluble epoxide hydrolase (sEH) (Homo sapiens)", "IC50": "226 µM"}
{"structure.smiles": "Cc1cc(=O)n(-c2ccc(C)c(C)c2)[nH]1", "measurement.target": "soluble epoxide hydrolase (sEH) (Homo sapiens)", "IC50": "135 µM"}
{"structure.smiles": "CCN(Cc1ccccc1)c1ccccc1", "measurement.target": "soluble epoxide hydrolase (sEH) (Homo sapiens)", "IC50": "56.6 µM"}
{"structure.smiles": "Fc1ccc(-c2c[nH]c3ccccc23)cc1", "measurement.target": "soluble epoxide hydrolase (sEH) (Homo sapiens)", "IC50": "120 µM"}

###

# measurement.target: 5‐lipoxygenase (5‐LOX) (Homo sapiens, UniProt P09917)
# Construct: made in house; host or cells: E. coli BL21 (DE3)
# Sequence (P09917 whole entry): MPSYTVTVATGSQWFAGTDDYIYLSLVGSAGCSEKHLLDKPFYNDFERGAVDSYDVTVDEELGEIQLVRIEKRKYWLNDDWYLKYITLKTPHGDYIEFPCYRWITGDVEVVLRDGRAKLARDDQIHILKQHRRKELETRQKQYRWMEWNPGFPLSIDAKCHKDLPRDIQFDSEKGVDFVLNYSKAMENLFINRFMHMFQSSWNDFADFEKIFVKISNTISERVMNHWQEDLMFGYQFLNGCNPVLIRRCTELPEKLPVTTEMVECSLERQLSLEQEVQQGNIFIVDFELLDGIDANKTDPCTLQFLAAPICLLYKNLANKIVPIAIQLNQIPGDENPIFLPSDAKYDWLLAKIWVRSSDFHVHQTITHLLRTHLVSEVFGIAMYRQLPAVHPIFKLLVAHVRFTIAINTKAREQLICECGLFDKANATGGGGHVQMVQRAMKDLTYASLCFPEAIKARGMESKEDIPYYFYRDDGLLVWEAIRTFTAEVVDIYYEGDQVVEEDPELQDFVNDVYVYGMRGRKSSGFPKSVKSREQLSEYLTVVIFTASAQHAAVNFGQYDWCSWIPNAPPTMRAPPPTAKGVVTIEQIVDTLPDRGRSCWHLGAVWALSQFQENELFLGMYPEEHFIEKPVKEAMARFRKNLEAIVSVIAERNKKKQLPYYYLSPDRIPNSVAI
# test.protocol: Differential scanning fluorimetry (DSF) screen on 5-LOX
# Format: binding
# experimental.setup: 500 μM fragment, mean of duplicates
This section presents molecules with their documented DSF/ΔT m 5‐LOX values.

{"structure.smiles": "Clc1ccc2c(c1)Nc1ccccc1CC2", "DSF/ΔT m 5‐LOX (°C)": "−0.1"}
{"structure.smiles": "Oc1ccc2cc[nH]c2c1", "DSF/ΔT m 5‐LOX (°C)": "−0.1"}
{"structure.smiles": "Oc1ccc(Cc2ccccc2)cc1", "DSF/ΔT m 5‐LOX (°C)": "−1.1"}
